The entries below are paired with their reported Emax.
target: Human recombinant PDE3A (hPDE3A) (Homo sapiens); construct: purchased Scottish Biomedical; host or cells: Sf9 insect cells; assay: In vitro assay PDE3A (SPA, 3H-cAMP hydrolysis); type: biochemical; settings: read-out: hPDE3B Emax; read-out: Emax;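 also: the method names PDE3A and the table heading PDE3B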
Sequence (Q14432 whole entry): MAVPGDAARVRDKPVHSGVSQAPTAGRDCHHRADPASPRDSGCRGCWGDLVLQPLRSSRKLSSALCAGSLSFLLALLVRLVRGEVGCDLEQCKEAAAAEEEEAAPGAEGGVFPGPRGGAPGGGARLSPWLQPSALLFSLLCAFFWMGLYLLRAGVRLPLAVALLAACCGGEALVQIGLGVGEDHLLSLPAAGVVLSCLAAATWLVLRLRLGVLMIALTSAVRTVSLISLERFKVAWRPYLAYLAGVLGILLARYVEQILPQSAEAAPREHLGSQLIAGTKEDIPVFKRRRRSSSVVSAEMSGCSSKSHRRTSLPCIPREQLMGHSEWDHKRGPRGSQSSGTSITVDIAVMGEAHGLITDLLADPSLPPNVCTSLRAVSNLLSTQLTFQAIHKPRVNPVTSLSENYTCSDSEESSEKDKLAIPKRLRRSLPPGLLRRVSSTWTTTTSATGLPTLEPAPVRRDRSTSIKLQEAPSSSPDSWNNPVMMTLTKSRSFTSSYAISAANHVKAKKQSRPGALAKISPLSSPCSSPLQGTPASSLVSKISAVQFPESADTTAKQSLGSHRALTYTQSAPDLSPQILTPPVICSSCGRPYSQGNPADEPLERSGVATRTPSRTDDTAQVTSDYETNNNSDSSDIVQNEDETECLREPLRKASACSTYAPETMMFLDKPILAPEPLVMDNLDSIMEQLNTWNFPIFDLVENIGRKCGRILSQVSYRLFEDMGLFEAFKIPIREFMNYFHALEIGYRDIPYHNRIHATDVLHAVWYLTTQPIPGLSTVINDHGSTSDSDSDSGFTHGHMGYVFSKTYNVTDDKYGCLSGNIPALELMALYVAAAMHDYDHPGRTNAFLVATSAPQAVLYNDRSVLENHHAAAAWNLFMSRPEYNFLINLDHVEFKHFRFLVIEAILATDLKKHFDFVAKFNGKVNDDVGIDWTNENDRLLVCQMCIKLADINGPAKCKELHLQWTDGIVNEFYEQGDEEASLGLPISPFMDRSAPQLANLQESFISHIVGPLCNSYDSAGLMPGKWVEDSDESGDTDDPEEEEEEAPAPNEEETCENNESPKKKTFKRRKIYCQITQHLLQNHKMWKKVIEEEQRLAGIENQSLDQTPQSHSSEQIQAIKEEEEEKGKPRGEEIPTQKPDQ
Write down the numeric answer in % and omit the unit.

Recorded Emax, per entry:
C[C@@H]1CCN(C(=O)c2cc(C(C)(C)C)cc(C(C)(C)C)c2)C[C@H]1c1cc(C(F)F)nc2ncnn12 ... 82
Cc1cc([C@H]2CN(C(=O)c3ccc4nccn4c3)CC[C@@H]2C)n2ncnc2n1 ... 26
C[C@@H]1CCN(C(=O)c2ccc(Cl)s2)C[C@H]1c1cc(C(F)F)nc2ncnn12 ... 66

In the following, a different compound is considered.
Per the records, this compound ( C[C@@H]1CCN(C(=O)c2cccc(N)n2)C[C@H]1c1cc(C(F)F)nc2ncnn12 ) has Emax equal to 26
